Each recorded value in this set is attributed to patent US10323038B2.

- subjectOfTest: FAAH (Mus musculus (Mouse), UniProt O08914)
- Sequence (O08914 whole entry): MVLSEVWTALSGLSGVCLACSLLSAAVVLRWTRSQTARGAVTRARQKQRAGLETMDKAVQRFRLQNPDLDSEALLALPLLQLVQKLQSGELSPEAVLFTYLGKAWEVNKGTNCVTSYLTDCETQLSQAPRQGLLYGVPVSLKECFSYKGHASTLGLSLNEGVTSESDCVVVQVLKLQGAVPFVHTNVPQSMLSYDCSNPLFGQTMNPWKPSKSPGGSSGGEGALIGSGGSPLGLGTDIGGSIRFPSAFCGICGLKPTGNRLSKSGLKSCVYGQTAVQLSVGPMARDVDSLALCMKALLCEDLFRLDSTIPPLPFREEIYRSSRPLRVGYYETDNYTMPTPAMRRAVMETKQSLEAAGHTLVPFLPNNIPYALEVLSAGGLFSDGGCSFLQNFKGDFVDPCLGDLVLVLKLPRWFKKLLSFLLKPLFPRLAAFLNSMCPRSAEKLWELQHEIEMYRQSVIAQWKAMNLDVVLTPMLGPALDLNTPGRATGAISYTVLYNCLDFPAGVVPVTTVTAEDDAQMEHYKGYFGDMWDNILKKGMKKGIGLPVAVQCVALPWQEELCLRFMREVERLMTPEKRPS
- assayNotes: In vitro competitive activity-based protein profiling, FAAH (mouse)
- Type: biochemical
- particulars: 1 μM, read-out: FAAH % inh. 1 μM (mouse)
- Method: In Vitro Competitive Activity-Based Protein Profiling. Proteomes (mouse brain membrane fraction or cell lysates for mouse assays; human prefrontal cortex or cell membrane fractions for human assays) (50 μL, 1.0 mg/mL total protein concentration) were preincubated with varying concentrations of inhibitors at 37° C. […] Following gel imaging, serine hydrolase activity was determined by measuring fluorescent intensity of gel bands corresponding to MAGL and FAAH using ImageJ 1.43u software.
reportedProperty: inhibition at 1 µM

The cases that follow already have their inhibition at 1 µM on record.
CS(=O)(=O)Nc1cnn(C(=O)N2CC3CN(Cc4cc(Cl)ccc4C(F)(F)F)CC3C2)c1 (stereo not drawn); ≥ 75%
CS(=O)(=O)Nc1cnn(C(=O)N2CCN(Cc3ccc(-c4ccccc4)cc3Cl)CC2)c1; ≥ 75%
CC(=O)N(C)c1cnn(C(=O)N2CC3CN(Cc4ccc(Oc5ccnnc5)cc4Cl)CC3C2)c1 (stereo not drawn); ≥ 75%
CC(=O)N(C)c1cnn(C(=O)N2CC3CN(Cc4cc(Cl)cc(N5CCN(C6CC6)CC5)c4)CC3C2)c1 (stereo not drawn); ≥ 75%
CC(=O)N(C)c1cnn(C(=O)N2CC3CN(Cc4ccc(N5CCCC5)cc4C(F)(F)F)CC3C2)c1 (stereo not drawn); ≥ 75%
CC(=O)N(C)c1cnn(C(=O)N2CC3CN(Cc4ccc5c(c4)OC(F)(F)O5)CC3C2)c1 (stereo not drawn); ≥ 75%
CC(=O)N(C)c1cnn(C(=O)N2C[C@H]3C[C@@H](N(Cc4ccc(Cl)cc4)C(C)=O)C[C@H]3C2)c1; 25 to 50%
CC(=O)N(C)c1cnn(C(=O)N2CC3CN(Cc4cc(N5CCOCC5)cc(C(F)(F)F)c4)CC3C2)c1 (stereo not drawn); ≥ 75%
CC(=O)N(C)c1cnn(C(=O)N2CC3CN(Cc4ccc(Cl)cc4)CC3C2)c1 (stereo not drawn); ≥ 75%
CC(=O)N(C)c1cnn(C(=O)N2CCN(Cc3cccc(Oc4ccccc4)c3)CC2)c1; ≥ 75%

Consider now this further compound.
# lookup: CS(=O)(=O)Nc1cnn(C(=O)N2CCC3(CC2)CN(Cc2ccc(N4CCCC4)cc2C(F)(F)F)C3)c1 on FAAH (Mus musculus (Mouse), UniProt O08914), inhibition at 1 µM = ≥ 75%

###

- subjectOfTest: MAGL (Mus musculus (Mouse), UniProt O35678)
- Sequence (O35678 whole entry): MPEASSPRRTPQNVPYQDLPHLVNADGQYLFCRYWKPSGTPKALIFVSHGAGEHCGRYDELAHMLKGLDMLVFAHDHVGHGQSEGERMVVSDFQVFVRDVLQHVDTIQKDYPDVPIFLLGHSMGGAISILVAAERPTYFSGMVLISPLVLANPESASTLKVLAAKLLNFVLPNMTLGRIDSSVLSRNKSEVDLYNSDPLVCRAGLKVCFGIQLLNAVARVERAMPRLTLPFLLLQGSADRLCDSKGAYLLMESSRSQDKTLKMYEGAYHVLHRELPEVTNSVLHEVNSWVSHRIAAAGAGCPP
- assayNotes: In vitro competitive activity-based protein profiling, MAGL (mouse)
- Format: biochemical
- particulars: 1 μM, read-out: MAGL % inh. 1 μM (mouse)
// inhibition at 1 µM lookup, one value per entry

inhibition at 1 µM for CC(=O)N(C)c1cnn(C(=O)N2CCC3(CC2)CN(Cc2ccc(C(F)(F)F)cc2)C3)c1 is ≥ 75%

inhibition at 1 µM for CC(=O)N(C)c1cnn(C(=O)N2CCN(Cc3cccc(C)c3)CC2)c1 is ≥ 75%

###

- subjectOfTest: FAAH (Homo sapiens (Human))
- Sequence (O00519 whole entry): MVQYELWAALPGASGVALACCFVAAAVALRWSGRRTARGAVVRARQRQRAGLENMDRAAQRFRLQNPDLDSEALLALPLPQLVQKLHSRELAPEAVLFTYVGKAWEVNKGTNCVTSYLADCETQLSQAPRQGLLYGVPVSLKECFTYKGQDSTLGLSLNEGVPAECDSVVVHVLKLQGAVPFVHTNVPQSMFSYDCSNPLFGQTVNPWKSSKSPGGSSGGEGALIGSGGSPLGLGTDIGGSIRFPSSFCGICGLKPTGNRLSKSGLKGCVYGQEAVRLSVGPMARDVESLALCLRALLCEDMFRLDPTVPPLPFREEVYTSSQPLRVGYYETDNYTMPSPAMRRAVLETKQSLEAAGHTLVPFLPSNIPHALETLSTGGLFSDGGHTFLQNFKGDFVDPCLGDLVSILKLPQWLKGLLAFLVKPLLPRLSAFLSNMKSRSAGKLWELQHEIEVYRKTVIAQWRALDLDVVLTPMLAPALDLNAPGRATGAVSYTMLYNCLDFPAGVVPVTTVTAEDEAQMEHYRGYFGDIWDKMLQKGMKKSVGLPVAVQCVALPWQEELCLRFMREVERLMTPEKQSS
- assayNotes: In vitro competitive activity-based protein profiling, FAAH (human)
- Type: biochemical
- particulars: 1 μM, human proteome; read-out: FAAH % inh. 1 μM (human)
// inhibition at 1 µM lookup, one value per entry

The cases that follow already have their inhibition at 1 µM on record.
CS(=O)(=O)Nc1cnn(C(=O)N2CCN(Cc3ccc(-c4cncnc4)cc3C(F)(F)F)CC2)c1; ≥ 75%
CS(=O)(=O)Nc1cnn(C(=O)N2CCN(Cc3ccc(-c4nc5ccccc5s4)cc3C(F)(F)F)CC2)c1; ≥ 75%
CS(=O)(=O)Nc1cnn(C(=O)N2CCN(Cc3ccc(-c4ncccn4)cc3C(F)(F)F)CC2)c1; ≥ 75%
Cc1nnc(-c2ccc(CN3CCN(C(=O)n4cc(NS(C)(=O)=O)cn4)CC3)c(C(F)(F)F)c2)o1; 0 to 25%
CS(=O)(=O)Nc1cnn(C(=O)N2CCC3(CCN(Cc4ccc(Cl)c(Cl)c4)C3)C2)c1 (stereo not drawn); ≥ 75%

# lookup: CS(=O)(=O)Nc1cnn(C(=O)N2CCN(Cc3ccc(-c4ccnnc4)cc3C(F)(F)F)CC2)c1 on FAAH (Homo sapiens (Human)), inhibition at 1 µM = 25 to 50%

# lookup: CS(=O)(=O)Nc1cnn(C(=O)N2CCC3(CCN(Cc4ccc(N5CCCC5)cc4C(F)(F)F)C3)C2)c1 (stereo not drawn) on FAAH (Homo sapiens (Human)), inhibition at 1 µM = ≥ 75%

# lookup: CS(=O)(=O)Nc1cnn(C(=O)N2CCC3(CCN(Cc4cccc(Cl)c4Cl)C3)C2)c1 (stereo not drawn) on FAAH (Homo sapiens (Human)), inhibition at 1 µM = ≥ 75%
